Data origin: paper PMC7385619

# measurement.target: PI3Kδ (Homo sapiens)
# Sequence (O00329 whole entry): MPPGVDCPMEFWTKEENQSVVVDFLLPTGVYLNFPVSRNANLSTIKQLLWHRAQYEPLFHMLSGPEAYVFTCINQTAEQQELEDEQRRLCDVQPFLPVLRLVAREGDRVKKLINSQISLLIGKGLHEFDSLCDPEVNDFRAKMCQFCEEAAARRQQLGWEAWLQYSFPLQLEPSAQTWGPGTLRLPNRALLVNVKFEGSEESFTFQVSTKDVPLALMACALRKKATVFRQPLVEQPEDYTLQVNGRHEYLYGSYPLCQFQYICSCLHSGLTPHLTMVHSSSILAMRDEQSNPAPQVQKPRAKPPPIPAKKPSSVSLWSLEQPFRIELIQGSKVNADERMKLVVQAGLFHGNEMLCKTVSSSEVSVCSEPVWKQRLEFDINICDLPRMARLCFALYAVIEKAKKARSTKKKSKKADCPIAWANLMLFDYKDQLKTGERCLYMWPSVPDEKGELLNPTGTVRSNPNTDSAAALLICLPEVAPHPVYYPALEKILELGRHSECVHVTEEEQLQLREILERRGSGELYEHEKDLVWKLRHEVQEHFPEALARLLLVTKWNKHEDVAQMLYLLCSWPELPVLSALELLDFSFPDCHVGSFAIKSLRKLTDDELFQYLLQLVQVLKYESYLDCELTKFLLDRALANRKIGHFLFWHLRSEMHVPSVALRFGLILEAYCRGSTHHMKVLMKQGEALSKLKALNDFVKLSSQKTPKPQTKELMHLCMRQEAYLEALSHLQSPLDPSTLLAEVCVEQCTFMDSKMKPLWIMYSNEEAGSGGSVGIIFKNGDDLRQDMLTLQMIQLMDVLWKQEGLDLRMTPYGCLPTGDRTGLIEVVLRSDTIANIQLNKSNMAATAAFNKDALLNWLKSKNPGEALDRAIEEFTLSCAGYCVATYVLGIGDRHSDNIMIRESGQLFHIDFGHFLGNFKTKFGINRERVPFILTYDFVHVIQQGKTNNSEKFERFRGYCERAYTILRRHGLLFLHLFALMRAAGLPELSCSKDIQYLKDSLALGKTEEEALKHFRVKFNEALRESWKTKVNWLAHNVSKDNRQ
# Sequence (P27986 whole entry partner): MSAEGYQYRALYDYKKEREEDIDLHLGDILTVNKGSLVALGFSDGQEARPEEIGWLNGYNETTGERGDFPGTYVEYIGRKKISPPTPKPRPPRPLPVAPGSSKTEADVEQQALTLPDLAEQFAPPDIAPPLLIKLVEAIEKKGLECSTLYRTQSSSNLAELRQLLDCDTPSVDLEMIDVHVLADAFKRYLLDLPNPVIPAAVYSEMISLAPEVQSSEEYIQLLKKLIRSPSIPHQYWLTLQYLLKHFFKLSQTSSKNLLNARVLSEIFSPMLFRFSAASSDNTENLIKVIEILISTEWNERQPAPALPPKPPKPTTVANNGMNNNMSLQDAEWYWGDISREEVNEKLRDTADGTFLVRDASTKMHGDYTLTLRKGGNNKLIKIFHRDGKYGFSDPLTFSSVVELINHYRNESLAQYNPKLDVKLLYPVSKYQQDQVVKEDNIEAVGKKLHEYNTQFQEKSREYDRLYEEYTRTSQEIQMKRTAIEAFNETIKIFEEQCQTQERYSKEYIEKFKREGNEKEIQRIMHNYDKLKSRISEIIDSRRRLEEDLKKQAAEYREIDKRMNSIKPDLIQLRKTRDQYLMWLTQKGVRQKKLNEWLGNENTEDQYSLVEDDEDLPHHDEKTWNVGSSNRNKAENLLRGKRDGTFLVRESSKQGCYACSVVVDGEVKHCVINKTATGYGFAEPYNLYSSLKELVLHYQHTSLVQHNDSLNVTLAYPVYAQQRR
experimental.endpoint: IC50 (nM)

CN(C)C(=O)c1cc2cnc(Nc3ccc(-c4csc5c(=O)cc(N6CCOCC6)oc45)cc3)nc2n1C1CCCC1 [SRX3177] | 83

* * *

# measurement.target: BRD2 (BD2) (Homo sapiens, UniProt P25440)
# Construct: tagged bromodomains and acetylated histone peptides as
# Sequence (P25440 344-453 limits assumed): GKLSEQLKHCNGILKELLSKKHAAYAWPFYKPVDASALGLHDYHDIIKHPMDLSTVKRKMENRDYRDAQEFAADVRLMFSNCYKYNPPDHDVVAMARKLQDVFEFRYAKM
# assay.text: AlphaScreen bromodomain binding assay, BRD2 BD2
# experimental.parameters: Fig. 1b; italicized values from the literature (italics not visible)
experimental.endpoint: IC50 (µM)

CN(C)C(=O)c1cc2cnc(Nc3ccc(-c4csc5c(=O)cc(N6CCOCC6)oc45)cc3)nc2n1C1CCCC1 | 0.994

* * *

# Tested on: neuroblastoma cells (CHLA-255, CHLA-136, and SMS-KNCR)
# assay.text: Cell viability (cytotoxicity) assay, neuroblastoma cells
# Type: cell-based
# experimental.parameters: Homo sapiens, 48 hours, CCK8 or Alamar Blue, curves of Fig. 1f-j, read-out: Half maximal inhibitory concentration (IC50) in cell line cytotoxicity assays, Neuroblastoma
experimental.endpoint: IC50 (µM)

CC(=O)c1c(C)c2cnc(Nc3ccc(N4CCNCC4)cn3)nc2n(C2CCCC2)c1=O [Palbociclib, reference compound] | 9.2
CN(C)C(=O)c1cc2cnc(Nc3ccc(-c4csc5c(=O)cc(N6CCOCC6)oc45)cc3)nc2n1C1CCCC1 | 0.55

* * *

# measurement.target: BRD3 (BD1) (Homo sapiens)
# Construct: tagged bromodomains and acetylated histone peptides as
# Sequence (Q15059 34-140 limits assumed): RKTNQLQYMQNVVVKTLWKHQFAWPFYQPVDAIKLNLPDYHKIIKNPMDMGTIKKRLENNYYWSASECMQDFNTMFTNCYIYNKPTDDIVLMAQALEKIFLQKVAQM
# assay.text: AlphaScreen bromodomain binding assay, BRD3 BD1
# experimental.parameters: Fig. 1b; italicized values from the literature (italics not visible)
pIC50: −log10 of the molar value.
experimental.endpoint: pIC50

CN(C)C(=O)c1cc2cnc(Nc3ccc(-c4csc5c(=O)cc(N6CCOCC6)oc45)cc3)nc2n1C1CCCC1 [SRX3177] | 6.97

* * *

# measurement.target: CDK6 (Homo sapiens, UniProt Q00534)
# Sequence (Q00534 whole entry): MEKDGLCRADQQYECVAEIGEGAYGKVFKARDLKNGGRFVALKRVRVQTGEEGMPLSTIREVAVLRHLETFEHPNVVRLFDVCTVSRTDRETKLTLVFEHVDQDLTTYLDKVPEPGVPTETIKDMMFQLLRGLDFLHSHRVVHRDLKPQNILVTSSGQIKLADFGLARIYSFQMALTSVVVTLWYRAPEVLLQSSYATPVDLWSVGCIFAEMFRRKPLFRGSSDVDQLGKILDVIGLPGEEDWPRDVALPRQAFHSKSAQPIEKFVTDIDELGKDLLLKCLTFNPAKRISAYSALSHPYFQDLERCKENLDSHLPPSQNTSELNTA
# Sequence (P24385 whole entry partner): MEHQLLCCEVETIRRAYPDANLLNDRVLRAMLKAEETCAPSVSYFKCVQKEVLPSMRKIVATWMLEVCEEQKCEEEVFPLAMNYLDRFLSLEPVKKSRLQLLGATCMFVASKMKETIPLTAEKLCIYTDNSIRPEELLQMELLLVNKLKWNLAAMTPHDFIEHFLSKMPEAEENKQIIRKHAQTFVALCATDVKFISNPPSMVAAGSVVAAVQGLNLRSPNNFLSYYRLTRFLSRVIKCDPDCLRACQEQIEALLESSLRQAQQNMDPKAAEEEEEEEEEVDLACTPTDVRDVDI
pIC50: −log10 of the molar value.
experimental.endpoint: pIC50

CN(C)C(=O)c1cc2cnc(Nc3ccc(-c4csc5c(=O)cc(N6CCOCC6)oc45)cc3)nc2n1C1CCCC1 [SRX3177] | 8.48

* * *

# measurement.target: DNA-PK (Homo sapiens, UniProt P78527)
experimental.endpoint: IC50 (nM)

CN(C)C(=O)c1cc2cnc(Nc3ccc(-c4csc5c(=O)cc(N6CCOCC6)oc45)cc3)nc2n1C1CCCC1 [SRX3177] | 21

* * *

# measurement.target: CDK4 (Homo sapiens, UniProt P11802)
# Sequence (P11802 whole entry, one chain of several): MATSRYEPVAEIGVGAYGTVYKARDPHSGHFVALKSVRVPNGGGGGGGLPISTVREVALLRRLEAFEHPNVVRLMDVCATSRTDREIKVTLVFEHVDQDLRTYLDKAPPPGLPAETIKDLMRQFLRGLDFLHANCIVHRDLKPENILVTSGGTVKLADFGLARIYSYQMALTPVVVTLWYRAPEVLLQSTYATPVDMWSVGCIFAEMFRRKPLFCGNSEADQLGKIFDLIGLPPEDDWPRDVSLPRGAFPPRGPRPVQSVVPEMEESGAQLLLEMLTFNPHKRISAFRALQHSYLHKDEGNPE
experimental.endpoint: IC50

CN(C)C(=O)c1cc2cnc(Nc3ccc(-c4csc5c(=O)cc(N6CCOCC6)oc45)cc3)nc2n1C1CCCC1 [SRX3177] | < 2.5 nM

* * *

# measurement.target: CDK2 (Homo sapiens, UniProt P24941)
experimental.endpoint: IC50 (nM)

CN(C)C(=O)c1cc2cnc(Nc3ccc(-c4csc5c(=O)cc(N6CCOCC6)oc45)cc3)nc2n1C1CCCC1 | 500

* * *

# measurement.target: PI3Kγ (Homo sapiens)
# Sequence (P48736 whole entry): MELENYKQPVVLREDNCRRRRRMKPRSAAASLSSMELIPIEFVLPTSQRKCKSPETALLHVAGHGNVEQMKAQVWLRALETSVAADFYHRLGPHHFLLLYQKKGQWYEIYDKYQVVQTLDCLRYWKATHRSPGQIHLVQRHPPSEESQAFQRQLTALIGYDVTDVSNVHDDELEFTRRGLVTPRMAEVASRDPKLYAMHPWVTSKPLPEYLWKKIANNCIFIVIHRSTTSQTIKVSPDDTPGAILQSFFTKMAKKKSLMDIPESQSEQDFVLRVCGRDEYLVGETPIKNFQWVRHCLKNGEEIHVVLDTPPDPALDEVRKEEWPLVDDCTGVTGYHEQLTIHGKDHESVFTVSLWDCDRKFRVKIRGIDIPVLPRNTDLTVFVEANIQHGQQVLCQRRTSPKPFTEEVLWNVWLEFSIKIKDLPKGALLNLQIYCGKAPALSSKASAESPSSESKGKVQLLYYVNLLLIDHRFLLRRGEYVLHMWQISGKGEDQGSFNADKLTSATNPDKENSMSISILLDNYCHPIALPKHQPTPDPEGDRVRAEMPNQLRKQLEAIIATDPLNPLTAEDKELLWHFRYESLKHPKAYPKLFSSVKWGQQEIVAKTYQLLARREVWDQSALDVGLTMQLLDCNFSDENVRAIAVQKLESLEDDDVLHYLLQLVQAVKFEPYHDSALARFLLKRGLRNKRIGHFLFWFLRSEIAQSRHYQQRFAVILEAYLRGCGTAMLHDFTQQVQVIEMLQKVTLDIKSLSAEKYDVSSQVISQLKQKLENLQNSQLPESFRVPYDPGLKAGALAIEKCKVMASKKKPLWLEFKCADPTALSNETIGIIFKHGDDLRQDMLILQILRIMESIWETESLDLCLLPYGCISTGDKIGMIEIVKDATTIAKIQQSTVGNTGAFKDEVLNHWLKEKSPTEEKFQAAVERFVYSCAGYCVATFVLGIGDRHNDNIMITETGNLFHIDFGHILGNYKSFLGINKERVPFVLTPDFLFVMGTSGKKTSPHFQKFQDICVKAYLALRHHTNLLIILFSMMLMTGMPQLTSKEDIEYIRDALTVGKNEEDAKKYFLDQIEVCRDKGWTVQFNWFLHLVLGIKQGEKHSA
experimental.endpoint: IC50 (µM)

CN(C)C(=O)c1cc2cnc(Nc3ccc(-c4csc5c(=O)cc(N6CCOCC6)oc45)cc3)nc2n1C1CCCC1 | 3.18

* * *

# Test system: Hepatocellular carcinoma cells (Hep3B, HepG2, and Huh7)
# assay.text: Cell viability (cytotoxicity) assay, hepatocellular carcinoma cells
# Assay type: cell-based
# experimental.parameters: Homo sapiens; 48 hours, CCK8 or Alamar Blue; curves of Fig. 1f-j; read-out: Half maximal inhibitory concentration (IC50) in cell line cytotoxicity assays, Hepatocellular Carcinoma
IC50 reference
experimental.endpoint: IC50 (µM)

CC(=O)c1c(C)c2cnc(Nc3ccc(N4CCNCC4)cn3)nc2n(C2CCCC2)c1=O [Palbociclib, reference compound] | 11.9
CN(C)C(=O)c1cc2cnc(Nc3ccc(-c4csc5c(=O)cc(N6CCOCC6)oc45)cc3)nc2n1C1CCCC1 [SRX3177] | 0.64
